Consider the following molecules and their measured IC50 readings.
- tested_system: UniProt P05177
- Sequence (P05177 whole entry): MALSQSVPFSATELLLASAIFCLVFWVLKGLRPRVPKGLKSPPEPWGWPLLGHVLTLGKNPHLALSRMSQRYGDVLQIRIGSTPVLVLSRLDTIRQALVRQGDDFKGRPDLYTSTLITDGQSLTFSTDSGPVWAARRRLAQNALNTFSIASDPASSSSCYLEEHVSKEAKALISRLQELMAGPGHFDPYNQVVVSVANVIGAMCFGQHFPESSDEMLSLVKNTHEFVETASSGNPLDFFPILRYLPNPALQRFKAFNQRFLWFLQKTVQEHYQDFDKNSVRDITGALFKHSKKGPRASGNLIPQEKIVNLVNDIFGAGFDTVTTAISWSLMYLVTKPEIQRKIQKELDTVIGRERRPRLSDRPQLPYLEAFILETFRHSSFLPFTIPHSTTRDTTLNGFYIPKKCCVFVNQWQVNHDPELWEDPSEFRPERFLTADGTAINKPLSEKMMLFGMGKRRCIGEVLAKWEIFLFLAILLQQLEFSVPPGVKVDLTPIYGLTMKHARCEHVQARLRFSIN
- protocol: Inhibition of human liver microsome CYP450 enzyme, CYP1A2 phenacetin site
- Assay type: in vitro ADME
- applied_conditions: human liver microsomes, probe substrate phenacetin
reported_metric: IC50

C[C@]1(c2ccc(Cl)cc2F)Oc2cccc(C3CCN(Cc4nc5ccc(C(=O)O)cc5n4C[C@@H]4CCO4)CC3)c2O1 [Positive compound 1, reference compound]; 12.5 µM
O=C(O)c1ccc2nc(CN3CCC(c4cccc5c4O[C@@H](c4ccc(Cl)cc4F)CO5)CC3)n(C[C@@H]3CCO3)c2c1 [Example 4]; > 30 µM
O=C(O)c1ccc2nc(CN3CCC(c4cccc5c4O[C@@H](c4ccc(Cl)cc4F)CO5)CC3)n(C[C@@H]3CCO3)c2n1 [Example 5]; > 30 µM

====

- protocol: Pharmacokinetic evaluation in mice
- Assay type: in vivo, C57 mice
- applied_conditions: female, C57, mouse, plasma, intravenous injection, 1 mg/kg, read-out: Area under curve AUC0-t
- Protocol: The drug concentrations in the plasma of the test animals (mice) at different time points after intragastric (ig) administration/intravenous (iv) injection of the compounds of the present disclosure were determined by an LC/MS/MS method. The pharmacokinetic behavior of the compound of the present disclosure in mice was studied and its pharmacokinetic profile was evaluated. […]
reported_metric: AUC(0-t) (µg·h/mL)

O=C(O)c1ccc2nc(CN3CCC(c4cccc5c4O[C@@H](c4ccc(Cl)cc4F)CO5)CC3)n(C[C@@H]3CCO3)c2n1 [Example 5]; 2.19
O=C(O)c1ccc2nc(CN3CCC(c4cccc5c4O[C@@H](c4ccc(Cl)cc4F)CO5)CC3)n(C[C@@H]3CCO3)c2c1 [Example 4]; 1.87

====

Consider the following compounds and their measured half-life readings.
- protocol: Pharmacokinetic evaluation in mice
- Format: in vivo, C57 mice
- applied_conditions: female, C57, mouse, plasma, po, intragastric administration, 2 mg/kg, read-out: Half-life T½ (converted)
reported_metric: half-life (h)

O=C(O)c1ccc2nc(CN3CCC(c4cccc5c4O[C@@H](c4ccc(Cl)cc4F)CO5)CC3)n(C[C@@H]3CCO3)c2c1; 3.1
O=C(O)c1ccc2nc(CN3CCC(c4cccc5c4O[C@@H](c4ccc(Cl)cc4F)CO5)CC3)n(C[C@@H]3CCO3)c2n1; 2.9

====

- protocol: Pharmacokinetic evaluation in mice
- Assay type: in vivo, C57 mice
- applied_conditions: female, C57, mouse, plasma, intravenous injection, 1 mg/kg, read-out: Half-life T½ (converted)
Consider the following molecules and their measured half-life readings.
reported_metric: half-life (h)

O=C(O)c1ccc2nc(CN3CCC(c4cccc5c4O[C@@H](c4ccc(Cl)cc4F)CO5)CC3)n(C[C@@H]3CCO3)c2n1 [Example 5]; 1.5
O=C(O)c1ccc2nc(CN3CCC(c4cccc5c4O[C@@H](c4ccc(Cl)cc4F)CO5)CC3)n(C[C@@H]3CCO3)c2c1 [Example 4]; 1.3

====

- tested_system: CYP3A4M (Homo sapiens (Human), UniProt P08684)
- Sequence (P08684 whole entry): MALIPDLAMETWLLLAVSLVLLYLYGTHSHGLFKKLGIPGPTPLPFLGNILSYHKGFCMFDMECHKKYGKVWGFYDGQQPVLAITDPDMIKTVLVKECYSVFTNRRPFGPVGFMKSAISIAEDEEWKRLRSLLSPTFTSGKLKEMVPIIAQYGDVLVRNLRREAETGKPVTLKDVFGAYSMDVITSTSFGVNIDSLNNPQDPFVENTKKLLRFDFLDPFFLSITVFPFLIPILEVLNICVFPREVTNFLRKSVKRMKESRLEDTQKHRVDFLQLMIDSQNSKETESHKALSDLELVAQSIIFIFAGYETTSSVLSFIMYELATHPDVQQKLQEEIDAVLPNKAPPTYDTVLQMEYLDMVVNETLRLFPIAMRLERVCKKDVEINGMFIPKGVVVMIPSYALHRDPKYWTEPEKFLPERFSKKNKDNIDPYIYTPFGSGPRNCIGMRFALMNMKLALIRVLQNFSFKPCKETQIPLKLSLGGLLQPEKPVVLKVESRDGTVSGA
- protocol: Inhibition of human liver microsome CYP450 enzyme, CYP3A4M midazolam site
- Type: in vitro ADME
- applied_conditions: human liver microsomes, probe substrate midazolam
Consider the following compounds and their measured IC50 readings.
reported_metric: IC50

C[C@]1(c2ccc(Cl)cc2F)Oc2cccc(C3CCN(Cc4nc5ccc(C(=O)O)cc5n4C[C@@H]4CCO4)CC3)c2O1 [Positive compound 1, reference compound]; 25.5 µM
O=C(O)c1ccc2nc(CN3CCC(c4cccc5c4O[C@@H](c4ccc(Cl)cc4F)CO5)CC3)n(C[C@@H]3CCO3)c2c1; > 30 µM
O=C(O)c1ccc2nc(CN3CCC(c4cccc5c4O[C@@H](c4ccc(Cl)cc4F)CO5)CC3)n(C[C@@H]3CCO3)c2n1; > 30 µM

====

Consider the following compounds and their measured Cmax readings.
- protocol: Pharmacokinetic evaluation in dogs
- Type: in vivo
- applied_conditions: male, dog, plasma, po; beagle dogs, intragastric administration, 2 mg/kg; read-out: Plasma concentration Cmax
reported_metric: Cmax (ng/mL)

O=C(O)c1ccc2nc(CN3CCC(c4cccc5c4O[C@@H](c4ccc(Cl)cc4F)CO5)CC3)n(C[C@@H]3CCO3)c2n1; 4430
O=C(O)c1ccc2nc(CN3CCC(c4cccc5c4O[C@@H](c4ccc(Cl)cc4F)CO5)CC3)n(C[C@@H]3CCO3)c2c1; 4040

====

- tested_system: CYP2C19 (Homo sapiens (Human), UniProt P33261)
- Sequence (P33261 whole entry): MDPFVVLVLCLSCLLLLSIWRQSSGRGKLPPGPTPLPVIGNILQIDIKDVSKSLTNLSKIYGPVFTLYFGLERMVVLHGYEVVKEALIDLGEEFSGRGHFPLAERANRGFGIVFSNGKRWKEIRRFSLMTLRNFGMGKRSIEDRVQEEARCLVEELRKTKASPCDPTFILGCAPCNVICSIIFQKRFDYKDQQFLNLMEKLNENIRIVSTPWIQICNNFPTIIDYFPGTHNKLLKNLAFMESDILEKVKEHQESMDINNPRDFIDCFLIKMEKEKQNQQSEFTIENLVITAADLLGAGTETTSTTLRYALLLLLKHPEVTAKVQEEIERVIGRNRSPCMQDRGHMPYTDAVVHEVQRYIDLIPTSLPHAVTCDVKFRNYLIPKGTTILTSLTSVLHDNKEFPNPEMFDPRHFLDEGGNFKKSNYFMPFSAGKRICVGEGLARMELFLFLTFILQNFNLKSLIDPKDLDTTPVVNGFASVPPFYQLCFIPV
- protocol: Time-dependent inhibition (TDI) of CYP2C19 (S)-mephenytoin site of metabolism in human liver microsomes
- Assay type: in vitro ADME
- applied_conditions: 30 min pre-incubation with NADPH, (S)-mephenytoin
- From the text: I. Materials and Instruments • 1. Phosphate buffered saline (20×PBS, purchased from Sangon); • 2. NADPH (ACROS, A2646-71-1); • 3. Human liver microsome (Corning Gentest, Cat No. 452161, Lot No. 905002, Donor36); • 4. ABI QTrap 4000 LC-MS System (AB Sciex); • 5. ZORBAX Extend-C18, 3×50 mm, 3.5 μm (Agilent, USA); • 6. […]
reported_metric: IC50 (nM)

C[C@]1(c2ccc(Cl)cc2F)Oc2cccc(C3CCN(Cc4nc5ccc(C(=O)O)cc5n4C[C@@H]4CCO4)CC3)c2O1 [Positive compound 1, reference compound]; 2600

====

Consider the following molecules and their measured Cmax readings.
- protocol: Pharmacokinetic evaluation in mice
- Format: in vivo, C57 mice
- applied_conditions: female, C57, mouse, plasma, po, intragastric administration, 2 mg/kg, read-out: Plasma concentration Cmax
reported_metric: Cmax (ng/mL)

O=C(O)c1ccc2nc(CN3CCC(c4cccc5c4O[C@@H](c4ccc(Cl)cc4F)CO5)CC3)n(C[C@@H]3CCO3)c2n1; 359
O=C(O)c1ccc2nc(CN3CCC(c4cccc5c4O[C@@H](c4ccc(Cl)cc4F)CO5)CC3)n(C[C@@H]3CCO3)c2c1; 797

====

- tested_system: hERG potassium channel (Homo sapiens (Human), UniProt Q12809)
- Sequence (Q12809 whole entry): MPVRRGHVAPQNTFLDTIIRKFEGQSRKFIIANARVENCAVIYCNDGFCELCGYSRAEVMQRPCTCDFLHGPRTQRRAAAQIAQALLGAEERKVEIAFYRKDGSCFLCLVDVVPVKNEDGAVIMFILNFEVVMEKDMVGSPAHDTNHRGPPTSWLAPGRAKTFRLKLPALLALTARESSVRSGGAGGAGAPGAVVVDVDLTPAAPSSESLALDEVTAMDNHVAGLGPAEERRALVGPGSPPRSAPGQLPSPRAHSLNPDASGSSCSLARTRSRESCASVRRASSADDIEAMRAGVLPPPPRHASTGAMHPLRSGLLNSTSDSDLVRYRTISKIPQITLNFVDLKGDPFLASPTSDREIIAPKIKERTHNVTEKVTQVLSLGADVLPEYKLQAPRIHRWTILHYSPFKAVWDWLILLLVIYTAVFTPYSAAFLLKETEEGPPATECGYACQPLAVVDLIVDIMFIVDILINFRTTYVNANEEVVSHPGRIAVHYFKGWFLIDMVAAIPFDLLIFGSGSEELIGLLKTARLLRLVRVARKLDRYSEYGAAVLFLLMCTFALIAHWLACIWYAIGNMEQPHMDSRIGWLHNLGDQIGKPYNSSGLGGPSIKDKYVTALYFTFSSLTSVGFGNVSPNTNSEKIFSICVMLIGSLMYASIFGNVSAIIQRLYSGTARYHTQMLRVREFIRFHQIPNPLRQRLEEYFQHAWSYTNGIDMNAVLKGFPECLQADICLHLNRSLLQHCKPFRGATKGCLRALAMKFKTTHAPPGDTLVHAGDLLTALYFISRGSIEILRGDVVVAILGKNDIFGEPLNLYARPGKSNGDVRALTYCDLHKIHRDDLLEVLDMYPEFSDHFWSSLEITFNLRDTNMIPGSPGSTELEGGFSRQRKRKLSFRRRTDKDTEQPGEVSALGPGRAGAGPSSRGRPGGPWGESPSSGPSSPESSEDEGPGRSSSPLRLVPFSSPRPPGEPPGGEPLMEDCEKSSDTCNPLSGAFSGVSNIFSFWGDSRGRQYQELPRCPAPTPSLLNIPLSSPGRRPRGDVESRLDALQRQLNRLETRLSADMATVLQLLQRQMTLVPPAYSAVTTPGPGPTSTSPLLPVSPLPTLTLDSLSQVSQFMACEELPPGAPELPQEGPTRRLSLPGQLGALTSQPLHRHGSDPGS
- protocol: Blocking effect on hERG potassium currents, manual patch-clamp in CHO cells stably expressing hERG channel
- Type: cell-based
- applied_conditions: read-out: IC50 for the blocking effect on the hERG potassium ion channel
pIC50: −log10 of the molar value.
reported_metric: pIC50

O=C(O)c1ccc2nc(CN3CCC(c4cccc5c4O[C@@H](c4ccc(Cl)cc4F)CO5)CC3)n(C[C@@H]3CCO3)c2c1; 5.00
O=C(O)c1ccc2nc(CN3CCC(c4cccc5c4OC(c4ccc(Cl)cc4F)CO5)CC3)n(C[C@@H]3CCO3)c2n1 (stereo partly shown); 4.58
O=C(O)c1ccc2nc(CN3CCC(c4cccc5c4O[C@@H](c4ccc(Cl)cc4F)CO5)CC3)n(C[C@@H]3CCO3)c2n1; 4.59
C[C@]1(c2ccc(Cl)cc2F)Oc2cccc(C3CCN(Cc4nc5ccc(C(=O)O)cc5n4C[C@@H]4CCO4)CC3)c2O1 [Positive compound 1, reference compound]; 5.34

====

Consider the following compounds and their measured CL/F readings.
- protocol: Pharmacokinetic evaluation in dogs
- Format: in vivo
- applied_conditions: male, dog, plasma, po; beagle dogs, intragastric administration, 2 mg/kg; read-out: Clearance CLz/F
reported_metric: CL/F (mL/min/kg)

O=C(O)c1ccc2nc(CN3CCC(c4cccc5c4O[C@@H](c4ccc(Cl)cc4F)CO5)CC3)n(C[C@@H]3CCO3)c2n1 [Example 5]; 1.7
O=C(O)c1ccc2nc(CN3CCC(c4cccc5c4O[C@@H](c4ccc(Cl)cc4F)CO5)CC3)n(C[C@@H]3CCO3)c2c1 [Example 4]; 1.6

====

Consider the following compounds and their measured Vd/F readings.
- protocol: Pharmacokinetic evaluation in dogs
- Format: in vivo
- applied_conditions: male, dog, plasma, po; beagle dogs, intragastric administration, 2 mg/kg; read-out: Apparent distribution volume Vz/F
reported_metric: Vd/F (L/kg)

O=C(O)c1ccc2nc(CN3CCC(c4cccc5c4O[C@@H](c4ccc(Cl)cc4F)CO5)CC3)n(C[C@@H]3CCO3)c2n1; 0.636
O=C(O)c1ccc2nc(CN3CCC(c4cccc5c4O[C@@H](c4ccc(Cl)cc4F)CO5)CC3)n(C[C@@H]3CCO3)c2c1; 0.713

====

- tested_system: GLP-1 receptor (Homo sapiens (Human))
- Sequence (P43220 24-463): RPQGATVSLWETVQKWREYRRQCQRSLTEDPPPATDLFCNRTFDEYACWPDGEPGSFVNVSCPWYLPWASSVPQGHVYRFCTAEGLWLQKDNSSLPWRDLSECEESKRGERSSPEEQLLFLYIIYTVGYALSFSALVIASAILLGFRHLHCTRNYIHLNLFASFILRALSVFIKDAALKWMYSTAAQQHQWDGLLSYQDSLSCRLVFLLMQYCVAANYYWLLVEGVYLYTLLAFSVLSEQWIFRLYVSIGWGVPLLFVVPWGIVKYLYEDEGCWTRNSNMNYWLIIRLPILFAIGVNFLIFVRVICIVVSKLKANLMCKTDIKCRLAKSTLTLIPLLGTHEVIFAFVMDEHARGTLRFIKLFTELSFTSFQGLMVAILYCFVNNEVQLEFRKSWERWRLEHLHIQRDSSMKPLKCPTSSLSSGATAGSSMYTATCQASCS
- protocol: Agonist activity against GLP-1 receptor, CRE-luciferase reporter (ONE-Glo) in CHO-K1/CRE-luc/GLP-1 receptor cells
- Type: cell-based
- applied_conditions: 6 h incubation
Consider the following compounds and their measured Emax readings.
reported_metric: Emax (%)

O=C(O)c1ccc2nc(CN3CCC(c4cccc5c4OC(c4ccc(Cl)cn4)CO5)CC3)n(C[C@@H]3CCO3)c2c1 (stereo partly drawn); 108
O=C(O)c1ccc2nc(CN3CCC(c4cccc5c4OC(c4nc6ccccc6s4)CO5)CC3)n(C[C@@H]3CCO3)c2c1 (stereo partly drawn); 109
O=C(O)c1ccc2nc(CN3CC=C(c4cccc5c4OC(c4ccc(Cl)cc4F)CO5)CC3)n(C[C@@H]3CCO3)c2c1 (stereo partly drawn); 112
O=C(O)c1ccc2nc(CN3CCC(c4cccc5c4OC[C@H](c4nc6ccccc6s4)O5)CC3)n(C[C@@H]3CCO3)c2c1; 103
CC1(c2ccc(Cl)cc2F)COc2c(cccc2C2CCN(Cc3nc4ccc(C(=O)O)cc4n3C[C@@H]3CCO3)CC2)O1 (stereo partly drawn); 103
O=C(O)c1ccc2nc(CN3CCC(c4cccc5c4OC[C@@H](c4nc6ccccc6s4)O5)CC3)n(C[C@@H]3CCO3)c2c1; 104
O=C(O)c1ccc2nc(CN3CCC(c4cccc5c4O[C@@H](c4ccc(Cl)cc4F)CO5)CC3)n(C[C@@H]3CCO3)c2n1; 107
O=C(O)c1ccc2nc(CN3CCC(c4cccc5c4OCC(c4nc6ccccc6s4)O5)CC3)n(C[C@@H]3CCO3)c2c1 (stereo partly drawn); 104
CC1(c2ccc(Cl)cc2F)COc2cccc(C3CCN(Cc4nc5ccc(C(=O)O)cc5n4C[C@@H]4CCO4)CC3)c2O1 (stereo partly drawn); 90
N#Cc1ccc(C2COc3cccc(C4CCN(Cc5nc6ccc(C(=O)O)cc6n5C[C@@H]5CCO5)CC4)c3O2)c(F)c1 (stereo partly drawn); 116
O=C(O)c1ccc2nc(CN3CCN(c4cccc5c4O[C@@H](c4ccc(Cl)cc4F)CO5)CC3)n(C[C@@H]3CCO3)c2c1; 104
O=C(O)c1ccc2nc(CN3CCC(c4cccc5c4OC(c4ccc(Cl)cc4F)CO5)CC3)n(C[C@@H]3CCO3)c2n1 (stereo partly drawn); 114
